src = patent US9833497B2

test system: Citrobacter diversus; assay: MIC against Gram-negative bacteria: Citrobacter diversus; format: cell-based; details: Citrobacter diversus; 96-well plate, 5×10^5 CFU/mL, 37° C., 10 h
OUTCOME MEASURE: MIC (μg/mL) C. diversus (µg/mL)
// return numeric value only (unit: µg/mL, not printed)

Solved entries (count: 3):
[[record]]
substance = "PRT117 (DVDECALGRSPCAQGCTNTDGSFHCSCEEGYVLAGEDGTQCQ; listed as Homo sapiens)"
data_value = 25

[[record]]
substance = "PRT90 (CDCYPVGSTSRSCAPHSGQCPCRPGALGRQCNSCDSPFAEVTASGCRV; listed as Homo sapiens)"
data_value = 25

[[record]]
substance = "PRT2 (DQLICVNENGGCEQYCSDHTGTKRSCRCHEGYSLLADGVSCT; listed as Homo sapiens)"
data_value = 25


Moving on to the next substance.
Query string: Write down MIC (μg/mL) C. diversus measured for item PRT36 (PVRDCSKDNGGCSKNFRCISDRKLDSTGCVCPSGLSPMKDSSGCY; listed as Homo sapiens)
Result string: 50

* * *

tested on: Moraxella catarrhalis; experiment: MIC against Gram-negative bacteria: Moraxella catarrhalis; assay type: cell-based; conditions: M. catarrhalis; 10 h cultivation at 37° C.; 5×10^5 CFU/mL
OUTCOME MEASURE: MIC (µg/mL)
Write the number in µg/mL without appending the unit.

[[record]]
substance = "PRT317 (VTDYCQLVRYLCQNGRCIPTPGSCRCECNKGFQLDLRGECI; listed as Homo sapiens)"
experimental_system = "Moraxella catarrhalis"
data_value = 25


Query string: // fetch MIC; item: PRT398 (DDNECHAQPDLCVNGRCVNTAGSFRCDCDEGFQPSPTLTECH; listed as Homo sapiens) ; system: Moraxella catarrhalis
Result string: 12.5

Query string: Give MIC for this entry on Moraxella catarrhalis: PRT432 (DVDECATDSHQCNPTQICINTEGGYTCSCTDGYWLLEGQCL; listed as Homo sapiens)
Result string: 12.5

Query string: For Moraxella catarrhalis, give MIC of the listed substance: PRT418 (DINECSSSPCSQECANVYGSYQCYCRRGYQLSDVDGVTCE; listed as Homo sapiens)
Result string: 25

Query string: Report MIC on Moraxella catarrhalis for this entry: PRT302 (DIDECVEEPEICALGTCSNTEGSFKCLCPEGFSLSSSGRRCQ; listed as Homo sapiens)
Result string: 12.5

Query string: Would you please give the reported MIC of PRT431 (DIDECRTIPEACRGDMMCVNQNGGYLCIPRTNPVYRGPYSN; listed as Homo sapiens) with Moraxella catarrhalis?
Result string: 12.5

Query string: Enter measured MIC, system Moraxella catarrhalis, for the substance shown: PRT416 (DVDECAPPAEPCGKGHRCVNSPGSFRCECKTGYYFDGISRMCV; listed as Homo sapiens)
Result string: 25

* * *

test system: Moraxella catarrhalis; test: MIC against Gram-negative bacteria: Moraxella catarrhalis; type: cell-based; details: 96-well plate, 5×10^5 CFU/mL, 37° C., 10 h
OUTCOME MEASURE: MIC M. catarrhalis (µg/mL)
Expressed in µg/mL, but write only the number.

Query string: Look up MIC M. catarrhalis of PRT726 (LPPPCRCMHGGNCYFDETDLPKCKCPSGYTGKYCE; listed as Homo sapiens) and report it.
Result string: 25

Query string: Assign MIC M. catarrhalis to the following record: PRT671 (RVVVCPLPCMNGGQCSSRNQCLCPPDFTGRFCQ; listed as Homo sapiens)
Result string: 25

Query string: Look up and state reported MIC M. catarrhalis for PRT594 (CACNNNIDVTDPESCSRVTGECLRCLHNTQGANCQLCKPGHYGSALNQTCRR; listed as Homo sapiens)
Result string: 12.5

Query string: In one line, give reported MIC M. catarrhalis of the entry PRT642 (DVNECDELNNRMSLCKNAKCINTDGSYKCLCLPGYVPSDKPNYCT; listed as Homo sapiens) .
Result string: 12.5

Query string: Determine its reported MIC M. catarrhalis: PRT670 (DVDECASRASCPTGLCLNTEGSFACSACENGYWVNEDGTACE; listed as Homo sapiens)
Result string: 12.5

Query string: Indicate its recorded MIC M. catarrhalis; the substance in question is PRT694 (DVDECRRVPPPCAPGRCENSPGSFRCVCGPGFRAGPRAAECL; listed as Homo sapiens)
Result string: 25

Query string: Note MIC M. catarrhalis for the substance shown: PRT607 (CDCHPEGSLSLQCKDDGRCECREGFVGNRCDQCEENYFYNRSWPGCQE; listed as Homo sapiens)
Result string: 12.5

Query string: Output MIC M. catarrhalis of PRT727 (EFDDCQIWGICDQKCESRPGRHLCHCEEGYILERGQYCK; listed as Homo sapiens)
Result string: 25

Query string: Give the reported value of MIC M. catarrhalis for this record: PRT640 (DMDECQDPSSCIDGQCVNTEGSYNCFCTHPMVLDASE; listed as Homo sapiens)
Result string: 25

Query string: Provide measured MIC M. catarrhalis value, entry: PRT634 (DIDECQHRHLCAHGQCRNTEGSFQCVCDQGYRASGLGDHCE; listed as Homo sapiens)
Result string: 25

Query string: Quickly give me recorded MIC M. catarrhalis for PRT706 (EVNHCSNYCQNGGTCVPSVLGRPTCSCALGFTGPNCG; listed as Homo sapiens)
Result string: 50

Query string: Supply MIC M. catarrhalis value. Item: PRT720 (INECHDPSISGCDHNCTDTLTSFYCSCRPGYKLMSDKRTCV; listed as Homo sapiens)
Result string: 50

Query string: Find the measured MIC M. catarrhalis of PRT668 (DINECRHPGTCPDGRCVNSPGSYTCLACEEGYRGQSGSCV; listed as Homo sapiens) and report it.
Result string: 25

Query string: Entry PRT679 (DLNECAKPHLCGDGGFCINFPGHYKCNCYPGYRLKASRPPVCE; listed as Homo sapiens) needs its MIC M. catarrhalis filled in; supply it.
Result string: 12.5

Query string: Indicate the recorded MIC M. catarrhalis value for this substance: PRT639 (DADECLLFGQEICKNGFCLNTRPGYECYCKQGTYYDPVKLQCF; listed as Homo sapiens)
Result string: 12.5

Query string: Supply reported MIC M. catarrhalis belonging to this substance: PRT688 (DVDECQLFRDQVCKSGVCVNTAPGYSCYCSNGYYYHTQRLECI; listed as Homo sapiens)
Result string: 12.5
